# reported T/C; entries follow
System: BDF1 mice, P388 leukemia ip, median survival T/C
Assay: NCI In Vivo Anticancer Drug Screen. Data for tumor model P388 Leukemia (intraperitoneal) in B6D2F1 (BDF1) mice
Details: endpoint: median survival time; dose: 6.25 mg/kg/injection; schedule: Q01DX009 (ip); vehicle: saline; higher = longer survival
Procedure: The antitumor activity of compounds was measured in mice bearing transplantable tumors. Survival or tumor size were measured and the results are expressed as the measurement made in the treated group (T) divided by the measurement made in the vehicle treated control group (C). The tumor model used in this assay is P388 Leukemia (intraperitoneal) in B6D2F1 (BDF1) mice
Inconclusive results and toxic doses are left out.

Solved entries (count: 2):
molecule: [Cr+6].[NH2-].[NH2-].[NH2-].[NH2-].[NH2-].[NH2-]
result: 120 % of control

molecule: CCN(CC)c1ccc(N=Cc2ccccc2S(=O)(=O)O)cc1
result: 100 % of control

Now consider the entry below.
Short answer please: T/C, BDF1 mice, P388 leukemia ip, median survival T/C, entry CN(C)C(c1ccccc1)C(CBr)C(=O)c1ccc(Br)cc1 (stereo not drawn) 110 % of control

====

system: BDF1 mice, P388 leukemia ip, median survival T/C; assay: NCI In Vivo Anticancer Drug Screen. Data for tumor model P388 Leukemia (intraperitoneal) in B6D2F1 (BDF1) mice; conditions: endpoint: median survival time; dose: 100.0 mg/kg/injection; schedule: Q04DX003 (ip); vehicle: Klucel (hydroxypropylcellulose) (HPC)
Inconclusive results and toxic doses are left out. Rule for the calls: active = survival T/C of 150% or more; inactive = T/C below 125% in these data.
Permitted responses: 1 (active), 0 (inactive)

What is the recorded call for this compound in the test? O=C(Cl)C1CC2c3ccccc3C1([N+](=O)[O-])c1ccccc12 (stereo not drawn) 0

What is the recorded call for this compound in the test? ClC(Cl)C(Cl)(Cl)C(Cl)(Cl)Cl 0

What is the recorded call for this compound in the test? C#CCOC(=O)Nc1cccc2ccccc12 0

What is the recorded call for this compound in the test? CN1C(=O)CN=C(c2ccc[nH]2)c2cc(Cl)ccc21 (tested in a mixture with another compound) 0

What is the recorded call for this compound in the test? CCCC(C1=CC(C)(C)c2ccccc2C1=O)c1ccc(Br)cc1 (stereo not drawn) 0

What is the recorded call for this compound in the test? C/C(N=Nc1ccc([N+](=O)[O-])cc1)=N\Nc1ccccc1 0

What is the recorded call for this compound in the test? N#C/C(=C1C=C(Br)/C(=N\O)C=C\1Cl)c1ccc(Cl)cc1 0

What is the recorded call for this compound in the test? OCCC[P+](c1ccccc1)(c1ccccc1)c1ccccc1 0

What is the recorded call for this compound in the test? COC(OC)c1cc(S)[nH]c(=O)c1F 0

What is the recorded call for this compound in the test? CCCCC/C=C/c1c(C)[nH]c2ccccc2c1=O 0

====

Test system: BDF1 mice, P388 leukemia ip, median survival T/C
Test: NCI In Vivo Anticancer Drug Screen. Data for tumor model P388 Leukemia (intraperitoneal) in B6D2F1 (BDF1) mice
Settings: endpoint: median survival time; dose: 25.0 mg/kg/injection; schedule: Q01DX009 (ip); vehicle: saline; higher = longer survival
Experimental: The antitumor activity of compounds was measured in mice bearing transplantable tumors. Survival or tumor size were measured and the results are expressed as the measurement made in the treated group (T) divided by the measurement made in the vehicle treated control group (C). The tumor model used in this assay is P388 Leukemia (intraperitoneal) in B6D2F1 (BDF1) mice
Inconclusive results and toxic doses are left out.
endpoint: T/C

compound: O=S(=O)([O-])[O-].OCCNCCNCC[OH2+].OCCNCCNCC[OH2+].[Cu+2]
endpoint: T/C
result: 94 % of control

compound: c1ccc2c(c1)CC1CCCCN1C2 (stereo not drawn)
endpoint: T/C
result: 90 % of control

compound: COC(/C=C\C(OC)OC)OC
endpoint: T/C
result: 112 % of control

compound: CCCCc1ccc(C(=O)O)nc1
endpoint: T/C
result: 102 % of control

compound: O=C(OC[P+](c1ccccc1)(c1ccccc1)c1ccccc1)c1ccccc1
endpoint: T/C
result: 122 % of control

May I ask what T/C has been recorded for O=C(O)C1CC[N-]CC1.O=C(O)C1CC[N-]CC1.[Cl][Pt+2]([Cl])([Cl])[Cl] ? 94 % of control

May I ask what T/C has been recorded for C=C1C(=O)OC2CC(C)C3(O)OC(C)(CC(OC(=O)C(C)C)C12)CC3O (stereo not drawn) ? 110 % of control

May I ask what T/C has been recorded for COc1c2ccoc2nc2c(OC)c3c(cc12)OCO3 ? 107 % of control

May I ask what T/C has been recorded for Cn1c(O)c(C=N)c(=O)n(C)c1=O ? 109 % of control

May I ask what T/C has been recorded for O=C(Nc1ccc(Cl)c(Cl)c1)Nc1c(Oc2ccc(Cl)c(Cl)c2)ccc(Cl)c1S(=O)(=O)O ? 104 % of control

May I ask what T/C has been recorded for CC(NC(C)(C)C)C(=O)c1cccc(Cl)c1 (stereo not drawn) ? 112 % of control

May I ask what T/C has been recorded for CC(=N\[O-])/C(C)=N/O.CC(=N\[O-])/C(C)=N/O.CCCc1ccncc1.[Cl-].[Cl-].[Rh+3] ? 102 % of control

May I ask what T/C has been recorded for COc1ccc(/C=C/C(=N\O)c2ccc(OC)c(OC)c2)cc1OC ? 118 % of control
